- Experiment summary: Viscosity, Brookfield viscometer DV-II+ (Spindle No. 2, 12 rpm, 25° C.)
- Format: physicochemical
- Measurement context: 25° C.
Where a name gives a salt, the structure may show the parent alone.
Exam item: assign true to entries whose Viscosity is below 40 mPa · s and false to entries at or above 40 mPa · s. Note that a value of exactly 40 mPa · s receives false.

| Compound | Label class |
| --- | --- |
| CCOCCOCCOC(=O)CCCCC(=O)OCCOCCOCC [Example 3, dicarbitol adipate] | true |
| CCOCCOCCOC(=O)CCC(=O)OCCOCCOCC [Example 1, dicarbitol succinate] | true |
| CCOCCOC(=O)CCC(=O)OCCOCC | true |
| CCOCCOCCOCCOC(=O)CCC(=O)OCCOCCOCCOCC | true |
| CCOCCOCCOC(=O)CC(O)C(=O)OCCOCCOCC (stereo not drawn) [Example 2, dicarbitol malate] | false |
| CCOCCOCCOC(=O)C(O)C(O)C(=O)OCCOCCOCC (stereo not drawn) [Example 4, dicarbitol tartrate] | false |
